Where these numbers come from: patent US12421210B2

- ASSAY_SYSTEM: human NAMPT enzyme (His-hNAMPT) (Homo sapiens (Human), UniProt P43490)
- Sequence (P43490 whole entry): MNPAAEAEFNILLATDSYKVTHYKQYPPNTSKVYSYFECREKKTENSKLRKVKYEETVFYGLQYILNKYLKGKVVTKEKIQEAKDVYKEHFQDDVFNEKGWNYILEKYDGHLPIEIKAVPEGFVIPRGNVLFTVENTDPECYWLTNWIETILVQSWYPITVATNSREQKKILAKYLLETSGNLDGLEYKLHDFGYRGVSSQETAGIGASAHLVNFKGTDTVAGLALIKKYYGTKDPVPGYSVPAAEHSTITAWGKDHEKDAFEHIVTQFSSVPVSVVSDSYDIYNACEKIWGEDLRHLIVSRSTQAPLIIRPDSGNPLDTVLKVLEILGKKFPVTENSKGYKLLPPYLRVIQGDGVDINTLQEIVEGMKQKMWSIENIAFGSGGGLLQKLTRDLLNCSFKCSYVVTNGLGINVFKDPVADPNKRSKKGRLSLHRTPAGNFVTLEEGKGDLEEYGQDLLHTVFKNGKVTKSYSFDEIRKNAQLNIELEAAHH
- EXPERIMENT_SUMMARY: NAMPT enzymatic inhibition assay (fluorescence, NADH product)
- Assay type: biochemical
- EXPERIMENTAL_SETUP: [BPS]; read-out: NAMPT IC50 (μM) [BPS]
Reported values of IC50 for individual entries

| COMPOUND | IC50 |
| --- | --- |
| CC(C)(C)CNC(=O)N1C[C@@H]2[C@@H](CCNC(=O)/C=C/c3ccc(N)nc3)[C@@H]2C1 | 0.01 to 0.49 µM |
| CC(C)(C)CNC(=O)N1C[C@@H]2[C@@H](CCNC(=O)c3cc4ccncc4o3)[C@@H]2C1 | 0.5 to 0.99 µM |
| O=C(NCC[C@@H]1[C@H]2CN(C(=O)N3CCOCC3)C[C@@H]12)c1cc2ccncc2o1 | 0.01 to 0.49 µM |
| Nc1ccc(/C=C/C(=O)NCC[C@@H]2[C@H]3CN(C(=O)Nc4ccccc4)C[C@@H]23)cn1 | 0.01 to 0.49 µM |
| O=C(/C=C/c1cccnc1)NC[C@@H]1[C@H]2CN(C(=O)c3ccccc3)C[C@@H]12 | 0.5 to 0.99 µM |
| Cc1nc(C)c(C(=O)N2C[C@@H]3[C@@H](CCNC(=O)c4ccc5nccn5c4)[C@@H]3C2)o1 | 0.01 to 0.49 µM |
| CC(C)(C)OC(=O)N1C[C@@H]2[C@@H](CCNC(=O)COc3cccnc3)[C@@H]2C1 | 0.01 to 0.49 µM |
| CC(C)(C)OC(=O)N1C[C@@H]2[C@H](C1)[C@H]2CC1(NC(=O)/C=C/c2ccc(N)nc2)CC1 | 1 to 29 µM |
| CC1(OC(=O)N2C[C@@H]3[C@@H](CCNC(=O)c4cc5ccncc5s4)[C@@H]3C2)COC1 | 0.01 to 0.49 µM |
| CCN(CC)C(=O)N1C[C@@H]2[C@@H](CCNC(=O)/C=C/c3ccc(N)nc3)[C@@H]2C1 | 0.01 to 0.49 µM |
| Nc1ccc(/C=C/C(=O)NCC[C@@H]2[C@H]3CN(C(=O)c4ccc(F)cc4)C[C@@H]23)cn1 | 0.01 to 0.49 µM |
| O=C(NCC[C@@H]1[C@H]2CN(C(=O)CC3CCOCC3)C[C@@H]12)c1cnc2nccn2c1 | 0.01 to 0.49 µM |
| Nc1ccc(/C=C/C(=O)NCC[C@@H]2[C@H]3CN(c4cccc5ccccc45)C[C@@H]23)cn1 | 0.01 to 0.49 µM |
| Nc1ccc(/C=C/C(=O)NCC[C@@H]2[C@H]3CN(C(=O)NCc4ccccc4)C[C@@H]23)cn1 | 0.01 to 0.49 µM |
| CC(C)(C)OC(=O)N1CCC2CC(CNC(=O)N3Cc4ccncc4C3)CC2C1 (centres unmarked) | 0.01 to 0.49 µM |
| O=C(NCC[C@@H]1[C@H]2CN(c3ncccn3)C[C@@H]12)c1ccc2nccn2c1 | 0.01 to 0.49 µM |
| O=C(NCC[C@@H]1[C@H]2CN(C(=O)CC3CCOCC3)C[C@@H]12)c1ccc2nccn2c1 | 0.01 to 0.49 µM |
